Sourced from patent EP1247803A2

# testedSystem: PDGF-R (Homo sapiens, UniProt P09619)
# Sequence (P09619 33-1106, species assumed): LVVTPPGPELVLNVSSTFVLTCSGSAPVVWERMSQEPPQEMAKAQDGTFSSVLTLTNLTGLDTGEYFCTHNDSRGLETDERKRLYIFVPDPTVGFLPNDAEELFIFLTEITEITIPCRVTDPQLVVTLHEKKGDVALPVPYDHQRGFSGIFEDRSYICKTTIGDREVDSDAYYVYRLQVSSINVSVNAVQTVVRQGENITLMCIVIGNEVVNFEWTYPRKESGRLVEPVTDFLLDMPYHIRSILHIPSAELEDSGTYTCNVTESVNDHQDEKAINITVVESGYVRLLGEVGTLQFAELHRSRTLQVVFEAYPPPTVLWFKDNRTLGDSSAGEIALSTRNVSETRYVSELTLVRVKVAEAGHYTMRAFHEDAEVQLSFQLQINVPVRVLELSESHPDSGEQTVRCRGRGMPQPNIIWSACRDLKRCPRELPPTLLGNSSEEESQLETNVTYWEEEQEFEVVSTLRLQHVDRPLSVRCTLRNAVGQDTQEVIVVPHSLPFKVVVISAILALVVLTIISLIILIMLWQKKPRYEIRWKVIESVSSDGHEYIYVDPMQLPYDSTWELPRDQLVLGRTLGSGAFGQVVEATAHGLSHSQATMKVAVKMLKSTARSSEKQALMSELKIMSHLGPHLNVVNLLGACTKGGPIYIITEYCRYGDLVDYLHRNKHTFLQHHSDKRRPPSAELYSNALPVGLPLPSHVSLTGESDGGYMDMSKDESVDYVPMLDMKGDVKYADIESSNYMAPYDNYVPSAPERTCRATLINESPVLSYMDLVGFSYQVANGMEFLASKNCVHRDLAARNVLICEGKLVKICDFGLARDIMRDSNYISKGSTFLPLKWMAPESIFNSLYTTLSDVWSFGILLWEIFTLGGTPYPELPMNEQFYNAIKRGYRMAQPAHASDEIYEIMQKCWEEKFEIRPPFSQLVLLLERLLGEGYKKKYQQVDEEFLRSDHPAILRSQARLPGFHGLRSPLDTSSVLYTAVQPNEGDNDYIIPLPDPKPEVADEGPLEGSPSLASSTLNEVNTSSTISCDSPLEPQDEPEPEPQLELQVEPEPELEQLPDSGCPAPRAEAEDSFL
# method: PDGF-R ELISA
# Assay type: cell-based
We begin with a simple list: items and their reported PDGF Kinase %Inhibition.
measure: PDGF Kinase %Inhibition (%)

CCN(CC)c1ccc(C=C2C(=O)Nc3ccc(S(=O)(=O)NC)cc32)cc1 ... 5.7
CNS(=O)(=O)c1ccc2c(c1)C(=Cc1cc(Cl)cc(Cl)c1O)C(=O)N2 ... 24.1
COc1cccc(C=C2C(=O)Nc3ccc(I)cc32)c1O ... 14.5
CCc1cc(CC)c(C=C2C(=O)Nc3ccc(S(=O)(=O)Nc4ccc(C(F)(F)F)cc4)cc32)[nH]1 ... 5.7
O=C1Nc2ccc(I)cc2C1=Cc1ccc(O)c([N+](=O)[O-])c1 ... 14.7
C=C(C)C1CC=C(C=C2C(=O)Nc3ccc(S(=O)(=O)Nc4ccc(C(F)(F)F)cc4)cc32)CC1 (centres unmarked) ... 30.8
CNS(=O)(=O)c1ccc2c(c1)C(=Cc1cccnc1)C(=O)N2 ... -21.1
O=C1Nc2ccc(S(=O)(=O)Nc3ccc(C(F)(F)F)cc3)cc2C1=Cc1ccc(O)cc1O ... 26.3

---

# Tested on: MET
# method: MET biochemical kinase assay
# Set-up: species or system human; concentration or dose not given beside the values
measure: Met Kinase % Inhibition (%)

C=C(C)C1CC=C(C=C2C(=O)Nc3ccc(S(=O)(=O)NC)cc32)CC1 (stereo not drawn) ... 24.5
CNS(=O)(=O)c1ccc2c(c1)C(=Cc1cc(O)ccc1O)C(=O)N2 ... 79.9
Cn1cccc1C=C1C(=O)Nc2ccc(S(=O)(=O)Nc3ccc(C(F)(F)F)cc3)cc21 ... 29.4
O=C1Nc2c(Br)cc(Br)cc2C1=Cc1coc2ccc(Cl)cc2c1=O ... 61.0
O=C1Nc2ccc(I)cc2C1=Cc1cc(Cl)cc(Cl)c1O ... 90.1
Cc1cc(O)cc(O)c1C=C1C(=O)Nc2ccc(I)cc21 ... 27.7
CCOC(=O)c1cc(C=C2C(=O)Nc3ccc(Br)c(C)c32)oc1C ... 3.9
Cc1c(Br)ccc2c1C(=Cc1ccc(O)c(Br)c1)C(=O)N2 ... 88.6
Cc1ccc(C=C2C(=O)Nc3ccc(CCCl)cc32)o1 ... 47.1
CCn1c2ccccc2c2cc(C=C3C(=O)Nc4ccc(S(=O)(=O)Nc5ccc(C(F)(F)F)cc5)cc43)ccc21 ... 49.1
COc1c(C(C)(C)C)cc(C=C2C(=O)Nc3ccc(Br)c(C)c32)cc1C(C)(C)C ... 18.4
O=C1Nc2c(Br)cc(Br)cc2C1=Cc1ccc(F)cc1C(F)(F)F ... 34.9
O=C1Nc2ccc(I)cc2C1=Cc1cc2c([nH]1)CCCC2 ... 70.8
CNS(=O)(=O)c1ccc2c(c1)C(=Cc1cc(C)n[nH]1)C(=O)N2 ... 24.5
CSc1ccc(C=C2C(=O)Nc3ccc(S(=O)(=O)Nc4ccc(C(F)(F)F)cc4)cc32)s1 ... 30.3
O=C1Nc2ccc(S(=O)(=O)N3CCOCC3)cc2C1=Cc1ccccc1Sc1ccc(Cl)cc1 ... 6.0
CC(C)(C)c1cc(C=C2C(=O)Nc3c(Br)cc(Br)cc32)cc(I)c1OCc1ccccc1 ... 74.6
Cc1csc2sc(C=C3C(=O)Nc4ccc(CCCl)cc43)c(C)c12 ... 11.2

---

# testedSystem: FLK-1 receptor (Mus musculus, UniProt P35918)
# Construct: expressed in transfected cells; host or cells: NIH3T3 C7#3
# Sequence (P35918 20-1345): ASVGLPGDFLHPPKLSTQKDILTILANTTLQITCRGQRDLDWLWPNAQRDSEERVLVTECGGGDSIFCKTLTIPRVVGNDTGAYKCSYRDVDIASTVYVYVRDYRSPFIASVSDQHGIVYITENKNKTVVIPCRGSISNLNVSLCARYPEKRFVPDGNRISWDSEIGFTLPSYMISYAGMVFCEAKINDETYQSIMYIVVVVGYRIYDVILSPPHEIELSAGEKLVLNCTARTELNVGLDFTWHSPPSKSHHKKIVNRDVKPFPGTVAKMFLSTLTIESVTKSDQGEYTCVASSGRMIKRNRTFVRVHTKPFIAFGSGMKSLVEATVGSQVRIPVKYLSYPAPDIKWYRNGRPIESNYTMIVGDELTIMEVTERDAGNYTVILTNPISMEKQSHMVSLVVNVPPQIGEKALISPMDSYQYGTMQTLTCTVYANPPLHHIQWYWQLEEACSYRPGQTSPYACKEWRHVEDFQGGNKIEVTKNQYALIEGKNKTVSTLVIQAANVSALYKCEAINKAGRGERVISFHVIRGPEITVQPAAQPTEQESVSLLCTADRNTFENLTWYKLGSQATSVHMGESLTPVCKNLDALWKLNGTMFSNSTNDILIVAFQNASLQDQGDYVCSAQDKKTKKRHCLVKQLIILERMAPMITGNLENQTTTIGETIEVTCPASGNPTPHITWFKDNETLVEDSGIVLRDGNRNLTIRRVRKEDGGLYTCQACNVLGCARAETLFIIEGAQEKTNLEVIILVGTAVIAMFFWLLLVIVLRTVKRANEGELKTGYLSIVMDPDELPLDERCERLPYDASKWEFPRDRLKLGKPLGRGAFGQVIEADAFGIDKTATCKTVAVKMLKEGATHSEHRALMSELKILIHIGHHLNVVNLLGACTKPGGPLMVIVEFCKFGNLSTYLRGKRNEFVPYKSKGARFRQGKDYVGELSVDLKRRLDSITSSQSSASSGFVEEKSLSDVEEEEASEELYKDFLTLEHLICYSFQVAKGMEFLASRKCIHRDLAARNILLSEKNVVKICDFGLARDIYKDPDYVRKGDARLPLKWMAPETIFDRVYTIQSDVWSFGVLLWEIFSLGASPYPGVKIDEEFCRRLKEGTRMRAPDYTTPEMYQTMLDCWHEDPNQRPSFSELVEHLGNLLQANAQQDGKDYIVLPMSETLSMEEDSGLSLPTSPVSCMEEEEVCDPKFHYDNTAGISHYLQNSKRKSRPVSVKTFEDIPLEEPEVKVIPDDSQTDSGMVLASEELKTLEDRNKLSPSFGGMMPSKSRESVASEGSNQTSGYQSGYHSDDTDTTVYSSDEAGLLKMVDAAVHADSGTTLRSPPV
# method: FLK-1 ELISA (kinase activity of the FLK-1 receptor in FLK-1/NIH3T3 cells, VEGF stimulated)
# Format: cell-based
# Procedure: An enzyme linked immunosorbent assay (ELISA) was conducted to measure the catalytic activity of the FLK-1 receptor and more specifically, the inhibition or activation of indolinone compounds on the catalytic activity of the FLK-1 receptor. Specifically, the following assay was conducted to measure catalytic activity of the FLK-1 receptor in FLK-1/NIH3T3 cells. […]
We begin with a simple list: items and their reported Fik Kinase %Inhibition.
measure: Fik Kinase %Inhibition (%)

O=C1Nc2ccc(I)cc2C1=Cc1ccc(F)cc1Cl [10719/B09] ... 11.3
COc1ccc(C=C2C(=O)Nc3ccc(Br)c(C)c32)cc1OC [10720/C04] ... 15.3
O=C1Nc2ccc(S(=O)(=O)Nc3ccc(C(F)(F)F)cc3)cc2C1=Cc1ccc([N+](=O)[O-])s1 [10722/E04] ... 38.6
CNS(=O)(=O)c1ccc2c(c1)C(=Cc1nc3ccccc3n1C)C(=O)N2 [10721/D02] ... 15.1
O=C1Nc2ccc(S(=O)(=O)N3CCOCC3)cc2C1=Cc1ccc(Cl)s1 [10721/F07] ... 4.8
COc1cccc(C=C2C(=O)Nc3ccc(I)cc32)c1OC [10727/B11] ... 16.8
CNS(=O)(=O)c1ccc2c(c1)C(=Cc1c(OC)cc(OC)cc1OC)C(=O)N2 [10719/D06] ... 25.8
CNS(=O)(=O)c1ccc2c(c1)C(=Cc1[nH]c(Cl)c(CC(=O)OC)c1C(=O)OC)C(=O)N2 [10725/D09] ... -0.9
CSc1ccc(C=C2C(=O)Nc3ccc(CCCl)cc32)cc1 [10729/G04] ... 12.2
CCOc1cc(C=C2C(=O)Nc3ccc(Br)c(C)c32)ccc1O [10720/C09] ... 12.1
O=C1Nc2ccc(CCCl)cc2C1=Cc1ccc(O)cc1 [10719/G07] ... 20.1
CC(C)(C)c1cc(C=C2C(=O)Nc3ccc(I)cc32)cc(C(C)(C)C)c1O [10721/B11] ... -2.1
O=C1Nc2ccc(CCCl)cc2C1=Cc1cc2c([nH]1)CCCC2 [10721/G05] ... -15.1
O=C1Nc2c(Br)cc(Br)cc2C1=Cc1ccc(C(=O)O)cc1 [10722/A05] ... 10.5
Cc1c(Br)ccc2c1C(=Cc1ccccc1OCC(=O)O)C(=O)N2 [10728/C10] ... 6.1
O=C1Nc2ccc(CCCl)cc2C1=Cc1coc2ccccc2c1=O [10727/G07] ... 7.2
O=C(O)COc1ccccc1C=C1C(=O)Nc2ccc(S(=O)(=O)Nc3ccc(C(F)(F)F)cc3)cc21 [10728/E10] ... 24.7
COc1c(I)cc(C=C2C(=O)Nc3ccc(S(=O)(=O)Nc4ccc(C(F)(F)F)cc4)cc32)cc1C(C)(C)C [10732/E11] ... 16.2

---

# testedSystem: EGFR (Homo sapiens, UniProt P00533)
# Construct: Add 7 ug A431 cell lysate per well (EGFR source); endogenous in cells; host or cells: A431
# Sequence (P00533 25-1210): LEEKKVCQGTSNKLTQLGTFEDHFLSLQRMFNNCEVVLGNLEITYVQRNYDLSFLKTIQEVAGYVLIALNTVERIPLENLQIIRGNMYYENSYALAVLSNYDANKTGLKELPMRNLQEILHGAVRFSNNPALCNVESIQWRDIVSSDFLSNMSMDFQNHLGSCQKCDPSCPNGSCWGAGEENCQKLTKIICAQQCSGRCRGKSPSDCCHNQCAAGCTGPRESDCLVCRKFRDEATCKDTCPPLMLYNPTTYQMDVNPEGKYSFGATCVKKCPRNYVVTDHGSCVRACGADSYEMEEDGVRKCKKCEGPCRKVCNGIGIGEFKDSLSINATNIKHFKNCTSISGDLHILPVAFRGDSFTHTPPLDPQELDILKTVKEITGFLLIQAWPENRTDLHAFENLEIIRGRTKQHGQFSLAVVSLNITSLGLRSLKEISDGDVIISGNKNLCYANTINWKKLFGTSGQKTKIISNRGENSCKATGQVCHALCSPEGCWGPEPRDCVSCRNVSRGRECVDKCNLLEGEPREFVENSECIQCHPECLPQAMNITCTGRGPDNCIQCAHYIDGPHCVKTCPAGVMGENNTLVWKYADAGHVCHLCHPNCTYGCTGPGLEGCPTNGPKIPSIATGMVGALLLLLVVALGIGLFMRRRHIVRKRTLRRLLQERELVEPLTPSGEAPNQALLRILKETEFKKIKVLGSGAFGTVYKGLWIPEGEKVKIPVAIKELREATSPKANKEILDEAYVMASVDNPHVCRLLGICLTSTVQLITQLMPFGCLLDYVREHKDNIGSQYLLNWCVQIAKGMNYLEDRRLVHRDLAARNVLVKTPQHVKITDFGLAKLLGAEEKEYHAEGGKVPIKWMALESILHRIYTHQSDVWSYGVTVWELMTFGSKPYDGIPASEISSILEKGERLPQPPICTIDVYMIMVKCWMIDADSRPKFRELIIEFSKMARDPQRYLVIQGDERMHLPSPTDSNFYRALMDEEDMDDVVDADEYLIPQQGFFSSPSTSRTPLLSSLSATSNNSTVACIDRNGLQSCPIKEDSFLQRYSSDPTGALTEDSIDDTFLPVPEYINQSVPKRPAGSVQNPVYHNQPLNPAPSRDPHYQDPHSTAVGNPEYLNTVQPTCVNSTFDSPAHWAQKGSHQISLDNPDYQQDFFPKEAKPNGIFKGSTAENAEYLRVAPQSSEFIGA
# method: EGFR ELISA assay (in vitro kinase activity, EGFR captured from A431 cell lysate)
# Assay type: biochemical
# Set-up: concentration or dose not given beside the values
We begin with a simple list: items and their reported Biochem EGFR %Inhibition.
measure: Biochem EGFR %Inhibition (%)

CC(C)(C)c1cc(C=C2C(=O)Nc3ccc(CCCl)cc32)cc(Br)c1O ... 2.1
O=C1Nc2ccc(S(=O)(=O)Nc3ccc(C(F)(F)F)cc3)cc2C1=Cc1coc2ccc([N+](=O)[O-])cc2c1=O ... 38.4
Cc1c(Br)ccc2c1C(=Cc1ncc[nH]1)C(=O)N2 ... -21.9
O=C1Nc2ccc(CCCl)cc2C1=Cc1ccc(O)cc1O ... 0.1
O=C1Nc2ccc(S(=O)(=O)Nc3ccc(C(F)(F)F)cc3)cc2C1=Cc1cc2c([nH]1)CCCC2 ... 61.3
CNS(=O)(=O)c1ccc2c(c1)C(=Cc1ccc(N(C)C)cc1OC)C(=O)N2 ... 12.7
COc1cccc(C=C2C(=O)Nc3ccc(S(=O)(=O)Nc4ccc(C(F)(F)F)cc4)cc32)c1O ... 8.3
COc1cccc(O)c1C=C1C(=O)Nc2ccc(Br)c(C)c21 ... 17.5
O=C1Nc2ccc(S(=O)(=O)Nc3ccc(C(F)(F)F)cc3)cc2C1=Cc1coc2c(Br)cc(Br)cc2c1=O ... 21.7
O=C1Nc2ccc(I)cc2C1=Cc1cccc(C(F)(F)F)c1F ... 11.1
CCOc1ccc(C=C2C(=O)Nc3ccc(I)cc32)cc1OC ... 29.0
COc1c([N+](=O)[O-])cc(C=C2C(=O)Nc3ccc(S(=O)(=O)N4CCOCC4)cc32)cc1C(C)(C)C ... -3.6
CC(C)(C)c1cc(C=C2C(=O)Nc3c(Br)cc(Br)cc32)cc(Cl)c1OCc1ccccc1 ... 6.1
Cc1c(Br)ccc2c1C(=Cc1cccs1)C(=O)N2 ... 18.0
CNS(=O)(=O)c1ccc2c(c1)C(=Cc1ccc(C)o1)C(=O)N2 ... 4.3
O=C1Nc2ccc(S(=O)(=O)Nc3ccc(C(F)(F)F)cc3)cc2C1=Cc1cccs1 ... 11.7
Cc1cc(C=C2C(=O)Nc3ccc(S(=O)(=O)N4CCOCC4)cc32)[nH]n1 ... -18.9
COc1cc(C=C2C(=O)Nc3ccc(S(=O)(=O)Nc4ccc(C(F)(F)F)cc4)cc32)cc2c1OCO2 ... -5.9
Cc1c(Br)ccc2c1C(=Cc1cc(C(C)C)c(Oc3ccccc3)c(C(C)C)c1)C(=O)N2 ... -14.7
O=C1Nc2ccc(I)cc2C1=Cc1ccc([N+](=O)[O-])s1 ... 10.6
COc1c(C(C)C)cc(C=C2C(=O)Nc3ccc(Br)c(C)c32)cc1C(C)C ... 1.4
COc1c([N+](=O)[O-])cc(C=C2C(=O)Nc3ccc(S(=O)(=O)Nc4ccc(C(F)(F)F)cc4)cc32)cc1C(C)(C)C ... 10.7
CCN(CC)c1ccc(C=C2C(=O)Nc3ccc(CCCl)cc32)c(O)c1 ... -0.3
COc1cc(O)ccc1C=C1C(=O)Nc2ccc(S(=O)(=O)N3CCOCC3)cc21 ... 7.1
O=C1Nc2ccc(CCCl)cc2C1=Cc1c[nH]c(=O)[nH]c1=O ... 13.3
COc1ccc(C=C2C(=O)Nc3ccc(S(=O)(=O)Nc4ccc(C(F)(F)F)cc4)cc32)c(OC)c1OC ... 17.7
COc1cccc(O)c1C=C1C(=O)Nc2ccc(S(=O)(=O)N3CCOCC3)cc21 ... -26.4
O=C1Nc2ccc(I)cc2C1=Cc1cc2ccccc2nc1Cl ... 48.4
Cc1c(Br)ccc2c1C(=Cc1coc3ccc(C(C)C)cc3c1=O)C(=O)N2 ... 35.5
CC(C)c1cc(C=C2C(=O)Nc3ccc(S(=O)(=O)N4CCOCC4)cc32)cc(C(C)C)c1Oc1ccccc1 ... -0.1
Cc1c(Br)ccc2c1C(=Cc1ccc(Cl)c([N+](=O)[O-])c1)C(=O)N2 ... 13.1
Cc1cc(C)c(C=C2C(=O)Nc3ccc(S(=O)(=O)N4CCOCC4)cc32)[nH]1 ... 37.3
CCc1ccc(C=C2C(=O)Nc3ccc(S(=O)(=O)Nc4ccc(C(F)(F)F)cc4)cc32)s1 ... -9.0
CNS(=O)(=O)c1ccc2c(c1)C(=Cc1[nH]c(C)cc1C)C(=O)N2 ... 31.7
